Values compiled from the supplement of paper PMC6992640.

- Tested on: HCI16 (cells of a triple-negative basal-like breast cancer xenograft)
- experimental.details: cell viability (% of vehicle); higher = less cytotoxic
- assay.conditions: 10 µM; 72 h
# cell viability values compiled below

compound	cell viability
Cc1[nH]c(C=C2C(=O)Nc3ccccc32)c(C)c1CCC(=O)O [TSU-68 (SU6668,Orantinib)]	111
O[C@@H]1CO[C@H]2[C@@H]1OC[C@@H]2O [Isosorbide]	116
O=C([O-])Cc1ccccc1Nc1c(Cl)cccc1Cl.[K+]	114
COc1ccc(C(=O)c2ccccc2)c(O)c1	128
CN(C)CC=CC(=O)Nc1cc2c(Nc3ccc(F)c(Cl)c3)ncnc2cc1OC1CCOC1.O=C(O)C=CC(=O)O.O=C(O)C=CC(=O)O (stereo unspecified) [Afatinib dimaleate]	30.7

Exercise: Identify measured cell viability corresponding to CCCCc1nc(Cl)c(CO)n1Cc1ccc(-c2ccccc2-c2nnn[n-]2)cc1.[K+]
Key: 82.3

Exercise: Identify measured cell viability corresponding to CN1C2CCCC1CC(NC(=O)c1nn(C)c3ccccc13)C2.Cl (stereo unspecified) [Granisetron HCl]
Key: 89.6

###

- Test system: HCI01 (cells of a triple-negative basal-like breast cancer xenograft)
- experimental.details: cell viability (% of vehicle); higher = less cytotoxic
- assay.conditions: 1 µM; 72 h
Checkbox rule: cell viability lower than 90 = yes; cell viability not lower than 90 = no.

Exercise: Please check: cell viability for CC1(C)Cc2c(-c3ccccc3)c(-c3ccc(Cl)cc3)c(CC(=O)O)n2C1 , strictly under 90 or not?
Key: no

Exercise: Please check: cell viability for CCc1c(Cl)c(O)c(Cl)c(O)c1C(=O)OC1C(C)OC(OCC2=CC=CCC(O)C(C)=CC(CC)C(OC3OC(C)(C)C(OC(=O)C(C)C)C(O)C3O)C(C)=CC(C)=CCC(C(C)O)OC2=O)C(OC)C1O (stereo unspecified) , strictly under 90 or not?
Key: no

Exercise: Please check: cell viability for CCc1cnn2c(NCc3ccc[n+]([O-])c3)cc(N3CCCCC3CCO)nc12 (stereo unspecified) , strictly under 90 or not?
Key: yes

Exercise: Please check: cell viability for Cc1c(Cl)cccc1Nc1ccccc1C(=O)O , strictly under 90 or not?
Key: no

Exercise: Please check: cell viability for CC(C)(C)Cn1c(N)nc2ccc(-c3[nH]c(C(C)(C)C)nc3-c3ccc(F)cc3)nc21.CS(=O)(=O)O.CS(=O)(=O)O , strictly under 90 or not?
Key: yes

###

- System: HCI01
- experimental.details: cell viability (% of vehicle); higher = less cytotoxic
- assay.conditions: 10 µM; 72 h
# cell viability values compiled below
Respond numerically, and do not add a unit to the figure.

compound	reported.result
NC(=O)N1c2ccccc2CC(=O)c2ccccc21 [Oxcarbazepine]	91.5

Exercise: Identify measured cell viability corresponding to Cc1c(OCC(F)(F)F)ccnc1CS(=O)c1nc2ccccc2[nH]1 (stereo not drawn) [Lansoprazole]
Key: 170

Exercise: Identify measured cell viability corresponding to CCN(CC)CC#CCOC(=O)C(O)(c1ccccc1)C1CCCCC1 (stereo not drawn) [Oxybutynin]
Key: 141

###

# cell viability values compiled below
- Test system: UCD52 (cells of a triple-negative basal-like breast cancer xenograft)
- experimental.details: cell viability (% of vehicle); higher = less cytotoxic
- assay.conditions: 10 µM; 72 h

molecule	value.kind	reported.result
Cl.Nc1ncnc2nc[nH]c12 [Adenine HCl]	cell viability	165

In the following, a different molecule is considered.
Exercise: Supply cell viability measured with UCD52 for Nc1nc(=O)c2c(CCc3ccc(C(=O)NC(CCC(=O)O)C(=O)O)cc3)c[nH]c2[nH]1.O.[Na+] (stereo unspecified) [Pemetrexed disodium hemipenta hydrate] .
Key: 95.4
